# credit: the OPERA property sets (Mansouri et al. 2018)

Entries annotated with measured logP
// keep it numeric: no unit symbol after the value

molecule	logP
NNc1nncc2ccccc12	1
Cc1ccccc1C(OCCN(C)C)c1ccccc1 (stereo unspecified)	3.77

Endpoint output: logP of Cc1cccc(N=C2NCCN2)c1Cl . Value? 1.83

Next entry: COCC(O)Cn1cc(Br)nc1[N+](=O)[O-] (stereo unspecified) 0.46

Next entry: CCOC(=O)C(C(=O)OC(C)C)=C1SCCS1 2.9

Next entry: CCCCn1c(=O)[nH]c(=O)c2[nH]cnc21 0.84

Next entry: CCCCCCCC1CC(C(=O)Nc2c(C(C)C)cccc2C(C)C)C(=O)O1 (stereo unspecified) 4.72

Next entry: CCN1CC(C(O)C(CC2CCCCC2)NC(=O)C(Cc2cnc[nH]2)NC(=O)C(CC(=O)N(C)CCOCOCCOC)Cc2ccccc2)OC1=O (stereo unspecified) 2.21

Next entry: c1cc2cccc3c4cccc5cccc(c(c1)c23)c54 6.25

Next entry: CCCCCCCCCCCC(=O)O 4.6

Next entry: COC(=O)C(C(=O)OC)=C1SCCS1 1.51

Next entry: Clc1cc(Cl)cc(-c2ccccc2)c1 5.41

Next entry: O=C1CC(c2ccccc2)c2ccccc2N1 (stereo unspecified) 2.79

Next entry: O=C(O)c1cc(-c2ccc(F)cc2F)ccc1O 4.44

Next entry: Clc1ccc(OCc2cccc(CN3CCOCC3)c2)cc1 3.52

Next entry: CC(C)C(=O)O 0.94

Next entry: Cc1cccc(C)c1NC(=O)CCCCN 1.02

Next entry: CCCCNC(=O)NS(=O)(=O)c1ccc(N)cc1 1.01

* * *

Label satisfied when logP is strictly below 2; at or above that, label not satisfied.

compound	discrete-label
CCCCCCCC(C)(C)c1ccc(C2CCCC(O)C2)c(O)c1 (centres undefined)	not satisfied
CC(C)C(=O)OCC1OC(n2cc(I)c(=O)[nH]c2=O)C1O (centres undefined)	satisfied
C#CCC(O)(CC#C)c1cccnc1	satisfied

State whether 2 exceeds logP recorded for Cc1cccc(C2C(=O)c3ccccc3C2=O)c1 . not satisfied

Next entry: CCN1CC(C(O)C(CC2CCCCC2)NC(=O)C(Cc2c[nH]cn2)NC(=O)C(Cc2ccc(OC)cc2)NC(=O)N2CC(OCOCCOC)C(OCOCCOC)C2)OC1=O (centres undefined) satisfied

Next entry: CCOC(=O)C(CC)(CC)C(=O)NC(N)=O satisfied

* * *

assay-readout: logP
// keep it numeric: no unit symbol after the value

Solved cases (2 shown):
compound	logP
CCCN(CCC)CC(=O)NC1c2ccccc2-c2ccccc21	4.61
c1ccc2c(c1)ccc1cccnc12	3.43

Endpoint output: logP of OC(Cn1ccnc1)(c1ccc(F)cc1)c1ccc(-c2ccccc2)cc1 (stereo not drawn) . Value? 4.23

* * *

assay-readout: logP
// keep it numeric: no unit symbol after the value

compound	logP
O=[N+]([O-])c1cc(F)ccc1F	1.86
Cc1ccc(S(=O)(=O)NC(=O)NN2CCCC2)cc1	0.65
CC(C)c1ccc(S(N)(=O)=O)cc1	1.84
Cc1cccc(C)c1NC(=O)C(C)N(C)C (stereo not drawn)	1.53

Endpoint output: logP of O=C(NCCNCC(O)COc1ccc(-c2ncc[nH]2)cc1)Nc1ccccc1 (stereo not drawn) . Value? 1.19

Next entry: COc1cccc2c1C(=O)c1c(O)c3c(c(O)c1C2=O)CC(O)(C(=O)CO)CC3OC1CC(N2CCOCC2)C(O)C(C)O1 (stereo not drawn) 1.73

Next entry: CC1(C)CC(=O)CC(C)(C)N1O 0.12

Next entry: CCCCOC(=O)c1cc(=O)[nH]c(=O)[nH]1 1.06
